Just for reference, PubChem BioAssay AID1159580 is where these values come from.

Assay: chemical genetic growth profiling, strain panel (AID 1159580);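 also: tested at 20 µM; growth read once vehicle control cultures reached saturation at 30 °C; 1 = growth at the plate median or of vehicle wells; lower values mean less growth of the strain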
Settings: S. cerevisiae deletion strains, growth OD, locus YDR388W
Among all 5,500 compounds or so, about 2,000 (36%) were called active. Not shown: some 18% with an inconclusive outcome. Rule as the data show it: active = normalized growth mostly below about 0.91 (no sharp cut-off); inconclusive = no clear call, values can overlap the other calls; inactive = mostly above about 0.92. This is one part of the list.
Classes to choose from: 1 for active, 0 for inactive

For this compound, state the assay outcome: CCN(CC)Cc1ccc(Nc2ccnc3cc(Cl)ccc23)cc1O
0

For this compound, state the assay outcome: O=C(O[C@@H]1Cc2c(O)cc(O)cc2O[C@@H]1c1cc(O)c(O)c(O)c1)c1cc(O)c(O)c(O)c1
1

For this compound, state the assay outcome: O=C1CCC(N2C(=O)c3ccccc3C2=O)C(=O)N1 (stereo not given)
0

For this compound, state the assay outcome: O=C(O)CCCc1ccccc1
0

For this compound, state the assay outcome: Cn1c(=O)c2c(ncn2CC(O)CO)n(C)c1=O (stereo not given)
0

For this compound, state the assay outcome: O=C1NCC2(CCN(CCc3ccccc3)CC2)O1
0

For this compound, state the assay outcome: O=C(Oc1cc(OC(=O)c2ccccc2)c2c(c1)O[C@H](c1ccc(OC(=O)c3ccccc3)c(OC(=O)c3ccccc3)c1)[C@@H](OC(=O)c1ccccc1)C2)c1ccccc1
0

For this compound, state the assay outcome: CN1CCC(OC(c2ccccc2)c2ccccc2)CC1
0

For this compound, state the assay outcome: COC(=O)/C=C/C(C)=C/C=C/C(C)=C/C=C/C=C(C)/C=C/C=C(C)/C=C/C(=O)O
0

For this compound, state the assay outcome: O=C(Oc1cc(O)cc2c1C[C@@H](OC(=O)c1cc(O)c(O)c(O)c1)[C@@H](c1cc(O)c(O)c(O)c1)O2)c1cc(O)c(O)c(O)c1
1

For this compound, state the assay outcome: C#CCN(C)Cc1ccccc1
0

For this compound, state the assay outcome: CCCCCCC(C)OC(=O)COc1cc(Cl)c(Cl)cc1Cl (stereo not given)
0

For this compound, state the assay outcome: O=C(OCC(O)CO)c1ccccc1Nc1ccnc2cc(Cl)ccc12 (stereo not given)
0

For this compound, state the assay outcome: CC(=O)Oc1cc(OC(C)=O)c2c(c1)O[C@H](c1ccc(OC(C)=O)c(OC(C)=O)c1)[C@@H](OC(C)=O)C2
0

For this compound, state the assay outcome: CNC(=O)O/N=C(\C)SC
0

###

Assay: chemical genetic growth profiling, strain panel (AID 1159580);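 also: tested at 20 µM; growth read once vehicle control cultures reached saturation at 30 °C; 1 = growth at the plate median or of vehicle wells; lower values mean less growth of the strain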
Settings: S. cerevisiae deletion strains, growth OD, locus YPL078C, strain atp4, stronger effect = lower value
About 2,000 (36%) of roughly 5,500 compounds were called active. Roughly 18% stayed inconclusive and do not appear here. This is one part of the list.
RECORDED ENDPOINT: normalized growth
Answer with the value's number alone.

Tell us which normalized growth value is on record for COc1ccc(-c2coc3cc(O)ccc3c2=O)c(O)c1O
0.991

Tell us which normalized growth value is on record for COc1ccc(-c2coc3cc(O)ccc3c2=O)c(OC)c1O
0.982

Tell us which normalized growth value is on record for Clc1ccc(C(c2ccc(Cl)cc2)C(Cl)(Cl)Cl)cc1
1.01

Tell us which normalized growth value is on record for Cc1ccc(S(=O)(=O)NC(=O)NN2CCCCCC2)cc1
0.98

Tell us which normalized growth value is on record for CCCc1cc(C(N)=S)ccn1
0.991

###

Assay: chemical genetic growth profiling, strain panel (AID 1159580);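 also: tested at 20 µM; growth read once vehicle control cultures reached saturation at 30 °C; 1 = growth at the plate median or of vehicle wells; lower values mean less growth of the strain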
Details: S. cerevisiae deletion strains, growth OD, locus YER167W, strain BCK2, stronger effect = lower value
In all, about 5,500 compounds went through this assay and about 2,000 (36%) were called active. Inconclusive results (about 18%) are left out. The list shows a part of the results.
RECORDED ENDPOINT: normalized growth
Answer with the value's number alone.

Tell us which normalized growth value is on record for C=C[C@@](C)(O)CCC1C(=C)C[C@H](O)C2C(C)(C)CCCC12C (some centres undefined)
1.01

Tell us which normalized growth value is on record for COC(=O)C[C@H]1C2(C)CC34OC5(C)O[C@@]6([C@H](OC(C)=O)C(OC(C)=O)[C@]7(C)C(/C(=C(/O)C(C)C)C(=O)O[C@H]7c7ccoc7)[C@@]6(O5)[C@H](OC(C)=O)[C@@]3(O)C2OC(=O)C(C)C)[C@]14C (some centres undefined)
0.99

Tell us which normalized growth value is on record for CC[C@@H](C(=O)C(C)[C@@H](O)[C@H](C)CCc1ccc(C)c(O)c1C(=O)O)C1OC(CC)(C2CC[C@](O)(CC)[C@H](C)O2)C[C@@H]1C (some centres undefined)
1.02

Tell us which normalized growth value is on record for NCCC(O)C(=O)NC1CC(N)C(OC2OC(CN)C(O)C(O)C2N)C(OC2OC(CO)C(O)C2O)C1O (centres undefined)
0.978
